Source listed as the supplement of paper PMC11451515.

Tested on: SEM cells
Assay: cell viability relative to DMSO control; higher = less cytotoxic
Conditions: RPMI 5 mM glucose + 10% dialyzed FBS; 48 h; 0.000781 µM
Attribute: cell viability
Entry rule: numbers only, all in %.

structure smiles: O=C(NCCCNc1nc(Nc2cccc(NC(=O)N3CCCC3)c2)ncc1I)c1cccs1
readout units: %
value: 46.5

stdin: Name the reported cell viability value associated with the compound `CC1=CC=C2\N=C/3N(CC[C@@]3(O)C(=O)C2=C1)C4=CC=CC=C4`
stdout: 86.8

stdin: Report cell viability for `Cc1cccc(N(C)C(=S)Oc2ccc3ccccc3c2)c1` please.
stdout: 95.6

stdin: Give its cell viability value. Item: `COC/1=C/[C@@H]2[C@@H]3CC4=C(C(=C(OC)C=C4)O)[C@]2(CCN3C)CC1=O`
stdout: 106

stdin: Fill blank: measured cell viability of the compound `C/C(=C\c1csc(C)n1)[C@@H]1C[C@@H]2O[C@]2(C)CCC[C@H](C)[C@H](O)[C@@H](C)C(=O)C(C)(C)[C@@H](O)CC(=O)O1` is ____.
stdout: 20.7

stdin: What does the record list as cell viability for `CCCCOc1ccc(CC(=O)NO)cc1` ?
stdout: 107

stdin: Requested read-out: cell viability. Entry: `NC(=O)c1cnc(-c2ccc(C3(N)CCC3)cc2)c(-c2ccccc2)c1`
stdout: 121

stdin: What measured cell viability goes with `O=[N+]([O-])c1ccc(Nc2ccccc2-c2ccccc2)c2nonc12` ?
stdout: 72.6

stdin: Which cell viability is reported for this compound? `CN1CCN(Cc2ccc(NC(=O)Nc3ccc(Oc4cc(NC(=O)C5CC5)ncn4)cc3)cc2C(F)(F)F)CC1`
stdout: 94.9
